Data credit: PubChem BioAssay (NCI)

Tested on: 786-0 renal
Assay: NCI-60 one-dose screen, 48 h (100 = growth as untreated, 0 = no growth, -100 = all killed)
Conditions: 10 µM unless noted
This is part of a sample that, as a whole, favours compounds with a hit. Of some 83,000 tested, about 20% had one in any assay.
Parameter threshold = 70%. Response is Y when growth meets or exceeds it, else N.

# example entries with known answers
| compound | system_under_test | class |
| --- | --- | --- |
| COC(=O)c1c(C)nc(C)c2c1C(=O)C=C(NCc1ccccc1)C2=O | 786-0 renal | Y |
| O=C(CCCCCCCC(=O)N1CCCCC1)N1CCCCC1 | 786-0 renal | Y |
| O=C1c2cccnc2C(=O)c2c1c(C(=O)OCCc1ccccn1)c1ccccn21 | 786-0 renal | N |
| O=C(CSc1nnnn1-c1ccccc1)Nc1ccc(Oc2ccccc2)cc1 | 786-0 renal | Y |
| C=C(C)[C@@H]1CC[C@]2(COC3CCCCO3)CC[C@]3(C)[C@H](CC[C@@H]4[C@@]5(C)C=C(C=O)C(=O)C(C)(C)[C@@H]5CC[C@]43C)[C@@H]12 (stereo not given in full) | 786-0 renal | N |
| O=C(NN1C(=O)CSC1c1cccc([N+](=O)[O-])c1)c1ccc(NC(=O)c2ccccn2)cc1 (stereo not given) | 786-0 renal | Y |
| Cn1cc(-c2csc(-c3cn(CCCN4CCOCC4)c4ccc(F)cc34)n2)c2cccnc21 | 786-0 renal | N |
| CCCn1c(=S)sc2c(NNC(C)=O)nc(C)nc21 | 786-0 renal | Y |

Ask: Decide: growth of CCOC(=O)CC1CSC(N/N=C/c2ccc(F)c(Br)c2)=N1 (stereo not given) >= 70%?
Result: Y
